# test.name: log P determination by LC-MS in the acidic range
# Assay type: physicochemical
# test.settings: LC-MS in the acidic range
result.type: log P (acid)

compound="Cc1cc(NC(=O)c2cccnc2)nn1C(C)C [Compound I-1-49]" result_type="log P (acid)" recorded_measurement=1.4
compound="Cc1cc(NC(=O)c2cccnc2)nn1-c1cccc(C#N)c1 [Compound I-1-217]" result_type="log P (acid)" recorded_measurement=1.59
compound="Cc1cc(NC(=O)c2cccnc2)nn1Cc1csc(C(F)(F)F)n1 [Compound I-1-302]" result_type="log P (acid)" recorded_measurement=1.93
compound="Cc1c(F)c(NC(=O)c2cccnc2)nn1Cc1ncccn1 [Compound I-1-211]" result_type="log P (acid)" recorded_measurement=0.72
compound="CCOC(=O)Cn1nc(NC(=O)c2cncc(F)c2)cc1C [Compound I-1-59]" result_type="log P (acid)" recorded_measurement=1.53
